Source listed as ChEMBL document CHEMBL1143113.

Test system: HMEC
Method: Cytotoxicity against human HMEC cells by MTT assay
Format: cell-based
Entries and their pIC50 values follow.
The value called pIC50 is obtained by taking minus log10 of the concentration in mol/L.

Some molecules with known pIC50 results, for comparison:
Line notation: Nc1nc(NCc2ccc(C(=O)Nc3ccccc3N)cc2)nc(NC2Cc3ccccc3C2)n1
pIC50: 5.10
--
Line notation: Nc1nc(NCc2ccc(C(=O)Nc3ccccc3N)cc2)nc(NC2CCCC2)n1
pIC50: 4.96
--
Line notation: Nc1ccccc1NC(=O)c1ccc(CNc2nc(NCCN3CCOCC3)nc(NC3Cc4ccccc4C3)n2)cc1
pIC50: 4.80
--
Line notation: Nc1ccccc1NC(=O)c1ccc(CNc2nc(NC3CC3)nc(NC3Cc4ccccc4C3)n2)cc1
pIC50: 4.74
--
Line notation: Nc1nc(NCc2ccc(C(=O)Nc3ccccc3N)cc2)nc(N2CCc3ccccc32)n1
pIC50: 5.00

## Task Record lookup: for HMEC, what pIC50 belongs to "Nc1nc(NCCc2ccccc2)nc(NCc2ccc(C(=O)Nc3ccccc3N)cc2)n1" ?
## Result 4.68
